Would you kindly list Inflammation Data, cell death at 10 uM for each of these compounds?
System: TNF-α induced IL-6
protocol text: TNF-α-induced IL-6 production determined by IL-6 ELISA
Format: cell-based
run parameters: 10 uM
Numeric only. Scale: %

I would be grateful if you could share the reported Inflammation Data, cell death at 10 uM for COc1ccc(Nc2nc(NC3CCCCCC3)nc(OC3CCCNC3)n2)cc1Cl (stereo not drawn) .
20

What do we get for COc1ccc(Nc2nc(NC3CC3)nc(N(C)C3CCN(C)CC3)n2)cc1Cl ?
15

What do we get for CCc1occc(=O)c1Oc1nc(Nc2ccc(OC)c(Cl)c2)nc(NC2CCCCCC2)n1 ?
20

What do we get for COc1ccc(Nc2nc(NC3CCCCCC3)nc(OC3CCNCC3)n2)cc1Cl ?
20

Attribution: patent US7332489B2
